Tested on: Sweetpotato Whitefly-Crawler (Bemisia Tabaci)
Experiment: Insecticidal test for sweetpotato whitefly-crawler in foliar spray assay (col. BEMITA)
Assay type: in vivo
Conditions: Bemisia tabaci, sweetpotato whitefly-crawler, read-out: BEMITA 200 ppm (Corrected % Control, rating)
Property Name: pest or weed control at 200 ppm

Please review the following examples before continuing.
CCN(C(=O)CCSC)c1sc(-c2cccnc2)nc1C [Compound 236]
80 to 100%
Cc1nc(-c2cncc(F)c2)sc1NC(=O)CCS(C)(=O)=O [Compound 148]
< 80%
CSCC(C)C(=O)Nc1sc(-c2ccc(F)nc2)nc1C (stereo not shown) [Compound 159]
80 to 100%
CCN(C(=O)CC(C)SC)c1sc(-c2cccnc2)nc1Cl (stereo not shown) [Compound 324]
< 80%
CSCC(C)(C)C(=O)Nc1sc(-c2ccc(F)nc2)nc1C [Compound 20]
80 to 100%

Lab note: each compound below needs its pest or weed control at 200 ppm filled in.
1. CSCC(C)C(=O)N(C(=O)OC(C)(C)C)c1sc(-c2ccc(Cl)nc2)nc1C (stereo not shown) [Compound 153]
2. Cc1nc(-c2cccnc2)sc1N(C(=O)C(C)C)C(=O)C(C)C [Compound 21]
3. CS[C@H]1CC1C(=O)Nc1sc(-c2cncc(F)c2)nc1C (stereo partly shown) [Compound 220]
4. CSCC(C)C(=O)N(C(=O)C(C)C)c1sc(-c2cncc(S(C)(=O)=O)c2)nc1C (stereo not shown) [Compound 152]
5. CCc1nc(-c2cccnc2)sc1N(C)C(=O)C(C)(C)CSC [Compound 49]
6. CC(C)C(=O)N1CCCC(C(=O)N(C)c2sc(-c3cccnc3)nc2Cl)C1 (stereo not shown) [Compound 411]
7. COC(=O)CCC(=O)N(C(=O)C(C)CSC)c1sc(-c2cccnc2)nc1C (stereo not shown) [Compound 189]

80 to 100%
80 to 100%
80 to 100%
< 80%
80 to 100%
80 to 100%
80 to 100%

Hi, could you look up pest or weed control at 200 ppm for each item in my list?
1. CCN(C(=O)C(C)C[S+](C)[O-])c1sc(-c2cccnc2)nc1Cl (stereo not shown) [Compound 348]
2. CSCC(C)C(=O)N(C(=O)C(C)C)c1sc(-c2cncc(F)c2)nc1C (stereo not shown) [Compound 200]
3. Cc1nc(-c2cccnc2)sc1N(C)C(=O)[C@H](Cc1ccccc1)NC(=O)OC(C)(C)C [Compound 280]

1. 80 to 100%
2. 80 to 100%
3. < 80%
